// provenance: PubChem BioAssay (NCI)

# System: OVCAR-8 ovarian
# protocol-description: NCI-60 one-dose screen, 48 h
# test-settings: 10 µM unless noted
About 83,000 compounds went through this panel and 20% of them were active in at least one assay; those are over-represented in the sample as a whole. Activity calls are given as the source filed them. The calls were made as follows: active = growth percent below 10; inactive = the rest.
Respond with a class label; see 1.0 (active), 0.0 (inactive)

Some solved entries appear below for comparison.
INSERT INTO measurements (smiles_text, category) VALUES
  ('Cc1ccc(C(=O)CSc2nc3ccc(F)cc3c(=O)n2-c2ccc(Cl)cc2)cc1', 0.0),
  ('NS(=O)(=O)c1ccc(-n2cc(-c3cccc(NC(=O)c4cc(Cl)cc(Cl)c4)c3)nn2)cc1', 0.0),
  ('O=C(O)Cn1c(O)c(/C=C2/C=c3cc4c(cc3=NC2=O)OCCO4)sc1=S', 0.0),
  ('S=c1c2ccccc2nc2n1CCc1c-2[nH]c2ccccc12', 0.0),
  ('CSc1ccccc1NC(=O)c1ccc2nnn(/C(C#N)=C/c3ccccn3)c2c1', 1.0);

For this compound, state the assay outcome: N#Cc1c(-c2ccc(Cl)cc2)nc2n[nH]c(-c3ccc(Cl)cc3)c2c1-c1ccc(C(F)(F)F)cc1
0.0

Hi team, can someone confirm the assay call for C=Cn1cc(C(=O)O)c(=O)c2cc(F)c(N3CCN(c4nccc(-c5nccs5)n4)CC3)cc21 ?
1.0

Dear colleague, could you share the recorded outcome for N#Cc1cnn(C(=O)c2ccccc2Br)c1NC(=O)c1ccc(Br)cc1Cl when you have a moment?
0.0

Test call for this compound, please: Cn1cc(-c2cc(N)n3nc(-c4cn(C)c5ccccc45)cc3n2)c2cc(Cl)ccc21
1.0

---

# Test system: NCI-H522 lung
# protocol-description: NCI-60 one-dose screen, 48 h (100 = growth as untreated, 0 = no growth, -100 = all killed)
# test-settings: 10 µM unless noted
# Description: Growth inhibition of the NCI-H522 human Non-Small Cell Lung tumor cell line is measured as a screen for anti-cancer activity. Cells are grown in 96 well plates and exposed to the test compound for 48 hours. Compounds are tested at a single concentration, which is 10^-5 M for most compounds. The reported endpoint is percent growth (GI% or GIPRCNT), where numbers from 0 - 100% represent growth inhibition, and numbers from -100% - 0 represent cell death. […]
This is part of a sample that, as a whole, favours compounds with a hit. Of some 83,000 tested, about 20% had one in any assay.
growth strictly less than 10% = met. Otherwise not met.

Would you kindly verify if growth of C=C1CCC2C3(C)COC(c4ccccc4)OC3CCC2(C)C1CC(NCc1ccccc1)C1=CCOC1=O (centres undefined) is strictly less than 10%?
not met

Check if growth falls below 10% for COc1ccc(-c2nc3cc(C)ccc3n2CC(=O)N=Nc2c(O)[nH]c3ccc(Cl)cc23)cc1 .
not met

hey, is growth for Cn1cc(-c2cc3nc(-c4cn(C)c5ncc(Br)cc45)cc(N)n3n2)c2ccccc21 lower than 10% or not?
met

Would you kindly verify if growth of Cc1ccc(C2=NN(c3nc(-c4cc5ccccc5oc4=O)cs3)C(c3ccc(C)cc3)C2)cc1 (centres undefined) is strictly less than 10%?
not met

Quick check: does COc1ccc(CCC2c3c(cc4c(c3OC)OCO4)CCN2C)cc1 (centres undefined) have growth under 10%?
met

Is it true that growth reported for COc1ccc2[nH]c(O)c(N=NC(=O)COc3ccc(NC(=O)Nc4ccccc4)cc3)c2c1 is less than 10%?
not met

Confirm or reject: growth of CCC(C)(C)c1ccc(OCCCCN2CCN(c3ccncc3)CC2)cc1 lies strictly below 10%
not met

Threshold test, growth < 10%: O=C(COc1ccc(NC(=O)Nc2ccccc2)cc1)N=Nc1c(O)[nH]c2ccc([N+](=O)[O-])cc12
met

Check if growth falls below 10% for Cc1cc2nc3c4ccccc4n(CCCN(C)C)c3nc2cc1C .
met

Please indicate whether the reported growth of O=C(/C=C/c1cccc(OCc2ccc(F)cc2)c1)c1nc2ccccc2[nH]1 is strictly below 10%.
not met

---

# Test system: COLO 205 colon
# protocol-description: NCI-60 one-dose screen, 48 h
# test-settings: 10 µM unless noted
The panel holds about 83,000 compounds, 20% with a hit somewhere; the sample as a whole holds those more often. Calls of active or inactive are those of the source. Rule for the calls: active = growth percent below 10; inactive = the rest.
// allowed return values: yes (1) for active, no (0) for inactive

// known answers, use as guide
INSERT INTO results (compound, tested_on, category) VALUES
  ('O=C(NNc1nc2cc(F)ccc2n2c(C(=O)N3CCN(C4CC4)CC3)ccc12)c1ncccn1', 'COLO 205 colon', 'yes (1)'),
  ('N#Cc1c(-c2ccccc2Cl)cc(-c2ccc3ccccc3c2)[nH]c1=O', 'COLO 205 colon', 'no (0)'),
  ('CN(C)CCn1c2ccccc2c2nc3cc4ccccc4cc3nc21', 'COLO 205 colon', 'no (0)');

Called result for COc1ccc(C(=O)/C=C/c2cccnc2)cc1S(N)(=O)=O
no (0)

Given CCN1C(=O)N(CC)C2NNC(Sc3c(C(=O)O)c4ccccc4n(C4CCCC4)c3=O)=NC21 (centres undefined) , state the outcome it received in this test.
yes (1)

Entry C=C1CC[C@@H]2[C@]3(C)COC(c4cn[nH]c4-c4cccc(Br)c4)O[C@@H]3CC[C@@]2(C)[C@@H]1C/C=C1/C(=O)OCC1O (some centres undefined) : call = ?
yes (1)

Please share the test call associated with Cc1ccccc1[C@H]1C(C(=O)c2ccc(Cl)cc2)C2(N[C@@H]1c1ccccc1)C(=O)Nc1ccc(Cl)cc12 (some centres undefined) .
yes (1)

Recorded test outcome, item O=c1oc2ccccc2cc1-c1csc(N=Nc2c(O)[nH]c3ccc(Cl)cc23)n1
no (0)

So what was the verdict on Cn1cc(NC(=O)c2cc(NC(=O)c3ccc(/C=C/c4ccccc4)cc3)cn2C)cc1C(=O)NCCCN1CCOCC1 in this test?
yes (1)

---

# Test system: RPMI-8226 leukemia
# protocol-description: NCI-60 one-dose screen, 48 h (100 = growth as untreated, 0 = no growth, -100 = all killed)
# test-settings: 10 µM unless noted
Compounds without any hit were thinned out: in the full panel of roughly 83,000, 20% have a hit.
readout: growth (%)
Give bare numbers, in %.

Please review the entries below; each comes with its answer.
INSERT INTO measurements (compound, tested_on, reading) VALUES
  ('O=C(CCN1C(=O)/C(=C/c2ccc(F)cc2)SC1=S)N1CCOCC1', 'RPMI-8226 leukemia', 52.2),
  ('O=C(c1ccccc1)C(c1c[nH]c2ccccc12)c1c[nH]c2ccccc12', 'RPMI-8226 leukemia', 20.6),
  ('O=C(/C=C/c1ccc(-c2ccccc2)cc1)c1nc2ccccc2n1Cc1ccc(F)cc1', 'RPMI-8226 leukemia', -2.77);

Hey, can you go through the list below and give me growth for every item?
1. NS(=O)(=O)c1ccc(N=Nc2c(O)n(CC(=O)Nc3ccccc3Cl)c3ccccc23)cc1
2. O=C(/C=C/c1ccc(O)c(O)c1)NC1CCOC1O (stereo not drawn)
3. O=c1[nH]c(=O)c2c(-c3cc4ccccc4oc3=O)ccnc2[nH]1
4. O=C(COc1ccc(NC(=O)Nc2ccc(Cl)c(Cl)c2)cc1)N=Nc1c(O)[nH]c2ccc(Br)cc12
5. COc1ccc(-c2nnc3ccc(N/N=C/c4ccc(O)cc4)nn23)cc1
6. O=C(COc1ccc(NC(=O)Nc2ccc(Cl)c(Cl)c2)cc1)N=Nc1c(O)[nH]c2ccccc12

1: 29; 2: 97.4; 3: 95; 4: 3.61; 5: 13.1; 6: 2.89

Working through the 6 compounds below one at a time, give growth for each.
1. Clc1cccc(Cl)c1/C=C/c1cc(/C=C/c2ccc(Br)cc2)c2ccccc2n1
2. N#Cc1c(-c2cccc(Cl)c2Cl)cc(-c2c[nH]c3ccccc23)[nH]c1=O
3. CN(C)c1nc(NCCNS(=O)(=O)c2ccc(C(=O)/C=C/c3ccc(C(F)(F)F)cc3)cc2)nc(Nc2ccc(F)cc2)n1
4. Cc1ncsc1-c1ccc(CNC(=O)[C@@H]2C[C@@H](O)CN2C(=O)[C@@H](NC(=O)C2(F)CC2)C(C)(C)C)c(OCCOCCOCCOCCOc2nc(Nc3cc(S(C)(=O)=O)ccc3N[C@@H](c3cccc4c3OC(F)(F)O4)c3ncccc3Cl)nc(N3CCNCC3)n2)c1
5. O=C1c2c(c3c4cc(F)ccc4oc3c3[nH]c4ccc(Br)cc4c23)C(=O)N1O
6. OCC1(CCCc2ccccc2)CCCN(c2nccc3ccccc23)C1 (stereo not drawn)

1: 86.6; 2: 44.4; 3: 0.159; 4: 13.6; 5: 34.2; 6: 5.11

For every listed record, write down its growth.
1. COc1cc2c(c(OC)c1OC)C(=O)CC(c1cccc(NC(=O)c3cc([N+](=O)[O-])ccc3Cl)c1)O2 (stereo not drawn)
2. CNC(=O)c1cc(Oc2ccc3nc(NC(=O)Nc4cccc(OC(F)(F)F)c4)sc3c2)ccn1
3. CCCS(=O)(=O)N1CCCC(C(=O)Nc2nc3ccc(NC(=O)c4ccc(F)c(OC)c4F)cc3s2)C1 (stereo not drawn)

30.3
51.7
12.4
